Answer each item with its documented activity change, negative = inhibition.
test: AP1 Signaling Pathway (AID 357); details: ME-180 (cervical carcinoma) AP-1-bla reporter, EGF-induced, beta-lactamase ratio, 5 h; at 7.69 µM (top of the series) unless noted;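 note: ME-180 reporter cells stimulated with EGF at its EC50 level; % is set by controls: 0 for no effect and ±100 for the full control effect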
Inconclusive results are not listed.
Give bare numbers, in %.

{"columns": ["line_notation", "value"],
 "data": [
  ["C[C@@H](C(=O)O)/C(=C/c1ccc2c(c1)OCO2)C(=O)O", -12.8],
  ["NCCNS(=O)(=O)c1ccc(N)cc1", 3.42],
  ["COc1ccc(-c2cc([C@H](O)[C@@H]3CCCCN3)c3ccccc3n2)cc1", 27.7],
  ["CC(C)NC[C@@H](O)c1ccc(O)c2ncccc12", -5.62],
  ["CC1(C)S[C@@H]2[C@H](NC(=O)Cc3ccccc3)C(=O)N2[C@@H]1C(=O)O", 11.5]
]}

Now consider the entry below.
Note to self: activity change, negative = inhibition recorded for O[C@@H](c1cc(-c2ccc(Cl)cc2)nc2ccccc12)[C@@H]1CCCCN1 was -7.25
